# Test system: HeLa human cervical tumor cells
# protocol text: Proliferation assay (crystal violet), HeLa cells
# Format: cell-based
# condition info: 96 h, 4 days incubation, crystal violet staining, read-out: Inhibition of cell proliferation, cell Line: HeLa IC50
quantity kind: IC50

As a guide, the following entries are already answered.
INSERT INTO results (compound, measured) VALUES
  ('C[C@@H](C(=O)Nc1ccc(-c2ccn3nc(Nc4ccc(C(=O)N5CC(F)C5)cc4OCC(F)(F)F)nc3c2)cc1)c1ccc(F)cc1 [Reference Example 01.03]', '≤ 100 nM'),
  ('COc1cc(C(=O)N2CCC2)ccc1Nc1nc2cc(-c3ccc(NC(=O)[C@H](C)c4ccc(F)cc4)cc3)ccn2n1 [Reference Example 01.06]', '≤ 100 nM'),
  ('COc1cc(S(C)(=O)=O)ccc1Nc1nc2cc(-c3ccc(NC(=O)[C@H](C)c4ccc(F)cc4)cc3)ccn2n1 [01.01]', '≤ 200 nM'),
  ('C[C@@H](C(=O)Nc1ccc(-c2ccn3nc(Nc4ccc(S(C)(=O)=O)cc4OCC(F)(F)F)nc3c2)cc1)c1ccc(F)cc1 [Reference Example 01.05]', '≤ 100 nM');

Now examine the next entry.
// field: IC50; key: COc1cc(C(=O)N2CC(F)C2)ccc1Nc1nc2cc(-c3ccc(NC(=O)[C@H](C)c4ccc(F)cc4)cc3)ccn2n1 [Reference Example 01.02] ; value = ≤ 100 nM
